Assay: Example 1: plasma pharmacokinetics of Compound 1 alone and coadministered with RTV in healthy subjects
Type: in vivo, human
Conditions: both sexes, human, plasma, po, 100 mg
quantityMeasured: AUC (ng·h/mL)
# value in ng·h/mL; strip the unit string

Query: What measured AUC goes with COc1cc2c(cc1Cc1cccc(Cl)c1F)c(=O)c(C(=O)O)cn2[C@H](CO)C(C)C ?
Result: 908
